test: DSSTox (CPDBAS) Carcinogenic Potency Database Summary SingleCellCall Results; conditions: animal chronic carcinogenicity bioassays, CPDB summary call
Calls of active or inactive are those of the source.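 How the source made its calls: active means a tumor-causing dose value with its tumor site reported for any sex and species group of a rodent or other animal cancer study; inconclusive means only studies judged inadequate by the national testing program; inactive means tested in at least one study, none positive.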
Please reply with one of these outcomes: yes (1) = active, no (0) = inactive

>>> discretelabel("O=C(O)c1ccccc1-c1c2cc(I)c(=O)c(I)c-2oc2c(I)c(O)c(I)cc12")
"no (0)"

Ask: Any idea what this test logged for CN(C)CCOc1ccc(/C(=C(/CCCl)c2ccccc2)c2ccccc2)cc1 ?
Result: no (0)

Ask: What outcome does the record of this test show for CCOc1ccc(NC(C)=O)cc1N ?
Result: yes (1)

Ask: Recorded call for COc1cc(N=Nc2ccccc2)ccc1N ?
Result: yes (1)

Ask: Record lookup: outcome of this test for O=Cc1ccco1 ?
Result: yes (1)

Ask: Any idea what this test logged for COc1ccc([N+](=O)[O-])cc1N=Nc1c(O)c(C(=O)Nc2cccc([N+](=O)[O-])c2)cc2ccccc12 ?
Result: no (0)

Ask: Entry CCN(Cc1cccc(S(=O)(=O)O)c1)c1ccc(C(=C2C=CC(=[N+](CC)Cc3cccc(S(=O)(=O)[O-])c3)C=C2)c2ccc(S(=O)(=O)O)cc2)cc1 : call = ?
Result: yes (1)

Ask: Entry NC(=O)OCC(COC(N)=O)c1ccccc1 : call = ?
Result: yes (1)

Ask: Assay result, entry Cc1cc2c(nc1N)[nH]c1ccccc12 — outcome?
Result: yes (1)

Ask: Please indicate how the test categorized CCCCCCc1ccc(O)cc1O .
Result: no (0)

Ask: Look up the recorded call for OC[P+](CO)(CO)CO in this test.
Result: no (0)

Ask: GET /call?item= CC(C)(C)NC(=O)[C@H]1CC[C@H]2[C@@H]3CC[C@H]4NC(=O)C=C[C@]4(C)[C@H]3CC[C@]12C returns the recorded outcome of this test.
Result: yes (1)

Ask: Returns: the outcome recorded for CCCCNC(=O)N(CCCC)N=O in this assay.
Result: yes (1)

Ask: Test call for this compound, please: CC(=O)Nc1ccc2c(c1)C(=O)c1ccccc1-2
Result: yes (1)

Ask: Would you mind telling me which call this test gave CCCCCNN ?
Result: yes (1)

Ask: GET /call?item= CNC(=O)O/N=C/C(C)(C)SC returns the recorded outcome of this test.
Result: no (0)

Ask: Hi, sorry to bother you, what did the test record for C=C(C)C(=O)OC ?
Result: no (0)

Ask: For this compound, state the assay outcome: COc1ccc(CCN2CCC(Nc3nc4ccccc4n3Cc3ccc(F)cc3)CC2)cc1
Result: no (0)

Ask: Per the records of this test, what outcome belongs to O=NN(c1ccccc1)c1ccccc1 ?
Result: yes (1)

Ask: Lab log entry: CCOP(=S)(OCC)SC1OCCOC1SP(=S)(OCC)OCC (stereo not given) — outcome as called in the assay?
Result: no (0)

Ask: For this compound, state the assay outcome: CCCCN(N=O)C(=N)N[N+](=O)[O-]
Result: no (0)

Ask: Short answer needed: outcome of this test for O=NN1CCCCC1C(=O)O (stereo not given) ?
Result: no (0)
